Readings of Ki for the listed compounds
Biological target: Adrenergic receptor alpha-1 (Rattus norvegicus, UniProt P15823+P23944+P43140)
Sequence (P15823 whole entry): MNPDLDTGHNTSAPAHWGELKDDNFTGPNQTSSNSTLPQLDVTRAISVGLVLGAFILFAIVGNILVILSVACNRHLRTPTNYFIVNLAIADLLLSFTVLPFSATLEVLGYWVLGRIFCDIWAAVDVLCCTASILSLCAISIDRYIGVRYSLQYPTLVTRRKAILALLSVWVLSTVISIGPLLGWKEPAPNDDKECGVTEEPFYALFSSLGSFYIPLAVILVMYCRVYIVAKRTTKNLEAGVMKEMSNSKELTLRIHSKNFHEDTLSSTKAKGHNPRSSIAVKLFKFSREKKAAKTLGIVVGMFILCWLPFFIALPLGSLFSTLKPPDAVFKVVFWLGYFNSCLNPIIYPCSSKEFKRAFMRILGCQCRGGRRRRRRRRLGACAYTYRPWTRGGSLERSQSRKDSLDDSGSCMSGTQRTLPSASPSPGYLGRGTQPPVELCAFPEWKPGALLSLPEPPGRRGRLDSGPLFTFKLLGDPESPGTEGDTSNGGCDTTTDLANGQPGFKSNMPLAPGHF
Sequence (P23944 whole entry): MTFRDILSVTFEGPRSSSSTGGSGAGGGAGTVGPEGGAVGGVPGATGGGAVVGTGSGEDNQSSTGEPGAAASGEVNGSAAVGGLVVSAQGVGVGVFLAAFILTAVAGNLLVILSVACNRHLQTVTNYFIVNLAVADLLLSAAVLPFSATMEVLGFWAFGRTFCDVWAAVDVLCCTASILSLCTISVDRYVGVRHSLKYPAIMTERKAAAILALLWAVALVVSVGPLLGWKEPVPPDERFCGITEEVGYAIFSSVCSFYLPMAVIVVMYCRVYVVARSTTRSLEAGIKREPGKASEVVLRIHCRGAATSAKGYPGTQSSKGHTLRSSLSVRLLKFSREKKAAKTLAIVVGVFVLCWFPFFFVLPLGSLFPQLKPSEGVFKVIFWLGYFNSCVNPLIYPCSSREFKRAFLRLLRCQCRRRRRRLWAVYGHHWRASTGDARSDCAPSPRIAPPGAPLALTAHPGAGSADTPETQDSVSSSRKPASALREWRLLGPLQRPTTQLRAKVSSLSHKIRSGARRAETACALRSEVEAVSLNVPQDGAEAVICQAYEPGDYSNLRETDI
Sequence (P43140 whole entry): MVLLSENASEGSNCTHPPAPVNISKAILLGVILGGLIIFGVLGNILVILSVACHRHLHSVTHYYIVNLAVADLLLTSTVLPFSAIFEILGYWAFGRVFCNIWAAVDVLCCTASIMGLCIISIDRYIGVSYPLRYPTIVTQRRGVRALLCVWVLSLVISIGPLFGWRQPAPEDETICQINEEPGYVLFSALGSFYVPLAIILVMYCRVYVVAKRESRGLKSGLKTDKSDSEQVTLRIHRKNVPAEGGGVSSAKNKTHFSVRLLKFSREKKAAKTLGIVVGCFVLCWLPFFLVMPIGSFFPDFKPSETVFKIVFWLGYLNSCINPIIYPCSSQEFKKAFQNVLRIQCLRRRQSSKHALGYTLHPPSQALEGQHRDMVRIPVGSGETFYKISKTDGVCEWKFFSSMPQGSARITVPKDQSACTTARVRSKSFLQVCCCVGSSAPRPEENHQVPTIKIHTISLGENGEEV
Assay: Binding affinity towards Alpha-1 adrenergic receptor in rat cerebral cortex membranes using [3H]prazosin as radioligand
Type: cell membranes, Membrane

- compound: "O=C1C2CCCN2C(=O)CN1CN1CCN(c2cccc3ccccc23)CC1 (stereo not drawn)"
  target: "Adrenergic receptor alpha-1 (Rattus norvegicus, UniProt P15823+P23944+P43140)"
  Ki: "> 1000 nM"
- compound: "O=C1C2CCCCN2C(=O)N1CN1CCN(c2cccc3c2COCCO3)CC1 (stereo not drawn)"
  target: "Adrenergic receptor alpha-1 (Rattus norvegicus, UniProt P15823+P23944+P43140)"
  Ki: "> 1000 nM"
- compound: "O=C1C2CCCN2C(=O)N1CN1CCN(c2cccc3ccccc23)CC1 (stereo not drawn)"
  target: "Adrenergic receptor alpha-1 (Rattus norvegicus, UniProt P15823+P23944+P43140)"
  Ki: "> 1000 nM"
- compound: "O=C1C2CCCCN2C(=O)N1CN1CCN(c2cccc3ccccc23)CC1 (stereo not drawn)"
  target: "Adrenergic receptor alpha-1 (Rattus norvegicus, UniProt P15823+P23944+P43140)"
  Ki: "> 1000 nM"
- compound: "O=C1C2CCCN2C(=O)N1CN1CCN(c2cccc3[nH]cnc23)CC1 (stereo not drawn)"
  target: "Adrenergic receptor alpha-1 (Rattus norvegicus, UniProt P15823+P23944+P43140)"
  Ki: "10000 nM"
- compound: "O=C1C2CCCN2C(=O)N1CCCCN1CCN(c2cccc3ccccc23)CC1 (stereo not drawn)"
  target: "Adrenergic receptor alpha-1 (Rattus norvegicus, UniProt P15823+P23944+P43140)"
  Ki: "64.9 nM"
- compound: "O=C1C2CCCCN2C(=O)N1CN1CCN(c2cccc3c2OCCO3)CC1 (stereo not drawn)"
  target: "Adrenergic receptor alpha-1 (Rattus norvegicus, UniProt P15823+P23944+P43140)"
  Ki: "> 1000 nM"
- compound: "O=C1C2CCCN2C(=O)CN1CN1CCN(c2cccc3c2COCCO3)CC1 (stereo not drawn)"
  target: "Adrenergic receptor alpha-1 (Rattus norvegicus, UniProt P15823+P23944+P43140)"
  Ki: "> 1000 nM"

---

target: D(2) dopamine receptor (Rattus norvegicus); assay: Binding affinity towards dopamine D2 receptor in rat striatum membranes using [3H]raclopride as radioligand
Sequence (P61169 whole entry): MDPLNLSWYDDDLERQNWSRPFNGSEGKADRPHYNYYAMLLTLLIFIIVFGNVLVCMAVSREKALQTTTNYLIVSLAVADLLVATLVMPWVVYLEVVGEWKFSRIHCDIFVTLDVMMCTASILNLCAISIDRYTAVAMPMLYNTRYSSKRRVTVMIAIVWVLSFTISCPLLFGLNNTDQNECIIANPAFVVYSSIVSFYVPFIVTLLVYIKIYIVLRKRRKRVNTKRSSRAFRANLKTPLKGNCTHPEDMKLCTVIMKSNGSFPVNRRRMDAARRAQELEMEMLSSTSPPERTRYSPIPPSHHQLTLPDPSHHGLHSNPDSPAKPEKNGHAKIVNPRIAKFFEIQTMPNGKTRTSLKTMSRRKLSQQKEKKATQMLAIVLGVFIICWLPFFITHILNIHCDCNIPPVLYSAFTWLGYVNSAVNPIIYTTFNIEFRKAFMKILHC
value.type: Ki (µM)

- molecule: "O=C1C2CCCN2C(=O)CN1CN1CCN(c2cccc3ccccc23)CC1 (stereo unspecified)"
  value.type: "Ki"
  result.number: 0.192
